assay_system: T1, human CD19 on Raji cells (human, UniProt P15391 20-556)
T1 construct: whole, on cells
T1 sequence (looked up): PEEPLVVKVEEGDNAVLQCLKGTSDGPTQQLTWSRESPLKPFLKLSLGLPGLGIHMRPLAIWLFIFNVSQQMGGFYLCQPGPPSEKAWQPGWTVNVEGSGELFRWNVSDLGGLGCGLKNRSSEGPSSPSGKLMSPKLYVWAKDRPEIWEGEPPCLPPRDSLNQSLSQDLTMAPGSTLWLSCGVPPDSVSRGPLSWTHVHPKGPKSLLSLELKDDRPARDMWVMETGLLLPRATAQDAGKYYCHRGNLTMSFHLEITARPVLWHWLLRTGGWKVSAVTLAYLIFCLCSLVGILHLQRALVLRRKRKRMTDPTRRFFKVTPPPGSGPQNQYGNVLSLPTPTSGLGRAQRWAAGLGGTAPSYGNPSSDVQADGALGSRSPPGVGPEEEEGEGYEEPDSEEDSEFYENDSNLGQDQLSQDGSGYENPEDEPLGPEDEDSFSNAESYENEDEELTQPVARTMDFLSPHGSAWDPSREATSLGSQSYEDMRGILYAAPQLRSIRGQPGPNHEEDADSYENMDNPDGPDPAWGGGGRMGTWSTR
assay_comment: FACS on Raji cells
readout_type: Maximum mean fluorescence intensity
Write no unit; give the number alone.

Record excerpt, results attached:
[Q] Item F3.40.14 (antibody, human IgG1, V domains shown, human-murine chimeric antibody, human IgG1) VH: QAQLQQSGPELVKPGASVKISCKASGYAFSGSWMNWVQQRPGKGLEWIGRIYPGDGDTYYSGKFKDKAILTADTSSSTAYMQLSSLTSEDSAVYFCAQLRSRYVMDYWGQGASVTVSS VL: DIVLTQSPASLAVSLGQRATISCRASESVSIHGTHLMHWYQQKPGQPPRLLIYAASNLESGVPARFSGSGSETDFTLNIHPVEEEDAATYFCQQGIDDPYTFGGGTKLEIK has what recorded Maximum mean fluorescence intensity?
[A] 27000

[Q] Given F3.23.10 (antibody, human IgG1, V domains shown, human-murine chimeric antibody, human IgG1) VH: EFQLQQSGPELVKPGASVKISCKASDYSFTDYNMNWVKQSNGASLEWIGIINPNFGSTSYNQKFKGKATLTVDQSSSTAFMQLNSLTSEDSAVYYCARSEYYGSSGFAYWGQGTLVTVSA VL: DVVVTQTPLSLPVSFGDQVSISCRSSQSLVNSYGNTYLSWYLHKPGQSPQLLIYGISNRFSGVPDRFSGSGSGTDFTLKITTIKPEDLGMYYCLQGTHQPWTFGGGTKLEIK , state its recorded Maximum mean fluorescence intensity.
[A] 14900

[Q] Sample F6.2.9 (antibody, human IgG1, V domains shown, human-murine chimeric antibody, human IgG1) VH: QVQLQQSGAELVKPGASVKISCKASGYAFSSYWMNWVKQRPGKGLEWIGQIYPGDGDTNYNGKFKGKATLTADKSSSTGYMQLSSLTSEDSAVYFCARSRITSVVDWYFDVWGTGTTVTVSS VL: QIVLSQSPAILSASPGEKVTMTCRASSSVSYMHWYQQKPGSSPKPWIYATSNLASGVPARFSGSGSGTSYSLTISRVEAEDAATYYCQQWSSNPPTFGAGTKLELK — what was its Maximum mean fluorescence intensity?
[A] 21500

[Q] Returns the measured Maximum mean fluorescence intensity for the input binder. Input: F5.11.2 (antibody, human IgG1, V domains shown, human-murine chimeric antibody, human IgG1) VH: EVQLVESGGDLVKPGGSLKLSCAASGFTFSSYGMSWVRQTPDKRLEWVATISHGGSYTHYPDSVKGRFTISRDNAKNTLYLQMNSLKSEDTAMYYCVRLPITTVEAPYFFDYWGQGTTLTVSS VL: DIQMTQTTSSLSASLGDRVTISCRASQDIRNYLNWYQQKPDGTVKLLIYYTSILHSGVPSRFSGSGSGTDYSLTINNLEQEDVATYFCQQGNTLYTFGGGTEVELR
[A] 16600

Now let's try a different one.
[Q] What value of measured Maximum mean fluorescence intensity is listed for F4.22.6 (antibody, human IgG1, V domains shown, human-murine chimeric antibody, human IgG1) VH: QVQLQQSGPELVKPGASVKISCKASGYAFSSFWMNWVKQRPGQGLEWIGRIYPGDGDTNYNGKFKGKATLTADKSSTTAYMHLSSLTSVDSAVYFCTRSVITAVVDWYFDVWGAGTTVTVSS VL: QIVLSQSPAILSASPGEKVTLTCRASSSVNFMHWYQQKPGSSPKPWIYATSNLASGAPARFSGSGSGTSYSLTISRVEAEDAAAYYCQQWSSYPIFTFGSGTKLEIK ?
[A] 27300
